target: T1, human PD-L1, full-length, on CHO cells (human, UniProt Q9NZQ7 19-290); assay: flow cytometry; PD-L1 MFI over CD28 MFI
T1 construct: also called huPD-L1; CD274
T1 sequence (Q9NZQ7 19-290): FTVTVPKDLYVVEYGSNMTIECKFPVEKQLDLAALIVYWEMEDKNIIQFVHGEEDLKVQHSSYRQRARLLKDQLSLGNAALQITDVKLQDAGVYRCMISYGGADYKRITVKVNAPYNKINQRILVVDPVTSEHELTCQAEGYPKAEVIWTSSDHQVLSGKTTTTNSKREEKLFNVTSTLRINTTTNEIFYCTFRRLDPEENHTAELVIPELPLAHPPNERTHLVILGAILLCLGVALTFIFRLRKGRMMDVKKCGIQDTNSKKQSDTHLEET
Outcome label depends on Ratio of PDL1:CD28 relative to 8 ratio: at/above gives condition met, below gives condition not met.

Answered examples (4):
BINDER	CAT
variant CD80 IgV-Fc D46V/V68M (Fc fusion, not shown: small tags and cut ends; a dimerising Fc or GST) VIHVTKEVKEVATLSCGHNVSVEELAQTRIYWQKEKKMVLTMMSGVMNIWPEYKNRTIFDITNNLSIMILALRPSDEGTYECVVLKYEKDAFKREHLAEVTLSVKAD	condition not met
variant CD80 IgV-Fc M47L (Fc fusion, not shown: small tags and cut ends; a dimerising Fc or GST) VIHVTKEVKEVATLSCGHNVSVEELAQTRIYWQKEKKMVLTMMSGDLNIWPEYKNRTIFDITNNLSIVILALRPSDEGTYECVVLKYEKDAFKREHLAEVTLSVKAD	condition not met
variant CD80 IgV-Fc E35D/D46V/L85Q (Fc fusion, not shown: small tags and cut ends; a dimerising Fc or GST) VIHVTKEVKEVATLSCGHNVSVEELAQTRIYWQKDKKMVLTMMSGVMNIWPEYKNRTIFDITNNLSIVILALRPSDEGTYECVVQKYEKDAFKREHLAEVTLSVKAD	condition met
variant CD80 IgV-Fc V68M/L85Q (Fc fusion, not shown: small tags and cut ends; a dimerising Fc or GST) VIHVTKEVKEVATLSCGHNVSVEELAQTRIYWQKEKKMVLTMMSGDMNIWPEYKNRTIFDITNNLSIMILALRPSDEGTYECVVQKYEKDAFKREHLAEVTLSVKAD	condition not met

Query: Please tell me: is the binder variant CD80 IgV-Fc D46V/M47L/L85Q (Fc fusion, not shown: small tags and cut ends; a dimerising Fc or GST) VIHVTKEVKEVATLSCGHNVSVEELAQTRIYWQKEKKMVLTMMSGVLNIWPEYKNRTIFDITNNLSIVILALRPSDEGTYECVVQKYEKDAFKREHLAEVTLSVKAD at or over 8 ratio in terms of Ratio of PDL1:CD28?
Response: condition met
